System Under Test: Cyclin-dependent kinase 6/G1/S-specific cyclin-D3 (Homo sapiens, UniProt Q00534)
Sequence (Q00534 whole entry): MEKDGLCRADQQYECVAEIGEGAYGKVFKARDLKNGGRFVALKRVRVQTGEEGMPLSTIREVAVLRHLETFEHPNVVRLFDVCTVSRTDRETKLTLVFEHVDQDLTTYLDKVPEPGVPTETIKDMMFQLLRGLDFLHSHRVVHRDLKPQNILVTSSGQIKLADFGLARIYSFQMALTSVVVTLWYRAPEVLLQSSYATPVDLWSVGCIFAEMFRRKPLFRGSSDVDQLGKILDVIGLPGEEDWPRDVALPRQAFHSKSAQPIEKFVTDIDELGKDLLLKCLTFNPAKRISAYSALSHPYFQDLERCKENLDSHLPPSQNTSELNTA
Sequence (P30281 whole entry, further chain): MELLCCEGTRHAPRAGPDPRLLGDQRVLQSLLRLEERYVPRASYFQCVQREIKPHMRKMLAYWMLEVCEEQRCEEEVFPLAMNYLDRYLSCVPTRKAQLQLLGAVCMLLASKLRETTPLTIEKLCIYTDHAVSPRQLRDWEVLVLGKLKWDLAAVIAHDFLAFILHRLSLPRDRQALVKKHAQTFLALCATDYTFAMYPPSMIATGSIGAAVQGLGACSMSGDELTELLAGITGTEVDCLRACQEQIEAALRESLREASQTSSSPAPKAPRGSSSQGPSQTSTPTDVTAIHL
Test Protocol: CDK6/Cyclin D3 ADP-Glo Kinase Assay
Observation Type: IC50

>>> experimental_value("Cc1cc2cnc(NC3CCN(S(=O)(=O)C4(C)CC4)CC3)nc2c(N2CCC3(CN(C)C3)C2)n1 [US20250235456, Compound 59]")
"< 200 nM"
>>> experimental_value("CN1Cc2ccc(Nc3ncc4ccnc(N5CCC6(C5)CC6(F)F)c4n3)cc2C1 (configuration not stated) [US20250235456, Compound 22]")
"< 200 nM"
>>> experimental_value("CS(=O)(=O)N1CCC(Nc2ncc3cc(C(F)F)nc(N4CC5(CCNCC5(F)F)C4)c3n2)CC1 [US20250235456, Compound 90]")
"< 200 nM"
>>> experimental_value("Cc1cc2cnc(NC3CCN(S(=O)(=O)C4CC4)CC3)nc2c(N2CC3(CC(O)C3)C2)n1 [US20250235456, Compound 66]")
"< 200 nM"
>>> experimental_value("Cc1cc2cnc(NC3CCN(S(=O)(=O)C4CC4)CC3)nc2c(N2CC(OC3CC3)C2)n1 [US20250235456, Compound 57]")
"< 200 nM"

## Task Give the value of IC50 reported for the following: Cc1cc2cnc(NC3CCN(S(C)(=O)=O)CC3)nc2c(N2CC3(CNCC3(F)F)C2)n1 [US20250235456, Compound 85]
## Result < 200 nM

## Task Give the value of IC50 reported for the following: Cc1cc2cnc(NC3CCN(S(C)(=O)=O)CC3)nc2c(N2CC3(CN(C)CC3(F)F)C2)n1 [US20250235456, Compound 101]
## Result < 200 nM

## Task Give the value of IC50 reported for the following: Cc1cc2cnc(NC3CCN(S(=O)(=O)C4CC4)CC3)nc2c(N2CC3(C2)CN(C2CC2)C3)n1 [US20250235456, Compound 48]
## Result 200 to 500 nM

* * *

Reported IC50 by item:
System Under Test: Cyclin-dependent kinase 1 (Homo sapiens)
Test Protocol: CDK1/Cyclin B1 ADP-Glo Kinase Assay

Previously resolved entries follow.
>>> experimental_value("Cc1cc2cnc(N[C@@H]3CCOC[C@H]3O)nc2c(N2CC(O)(C3CC3)C2)n1")
"> 2000 nM"
>>> experimental_value("Cc1cc2cnc(NC3CCN(S(=O)(=O)C4CC4)CC3)nc2c(N2CC(OC3CC3)C2)n1")
"200 to 500 nM"
>>> experimental_value("Cc1cc2cnc(NC3CCN(S(=O)(=O)CCC4(C)CC4)CC3)nc2c(N2CC(F)(F)C3(CNC3)C2)n1")
"200 to 500 nM"

## Task Give the value of IC50 reported for the following: Cc1cc2cnc(Nc3cnn(CC4(N(C)C)CC4)c3)nc2c(N2CCC3(C2)CC3(F)F)n1 (stereo not given)
## Result > 2000 nM

## Task Give the value of IC50 reported for the following: Cc1cc2cnc(NC3CCN(S(C)(=O)=O)CC3)nc2c(C2CC(C)(CO)C2)n1 (stereo not given)
## Result < 200 nM

## Task Give the value of IC50 reported for the following: Cc1cc2cnc(NC3CCN(S(C)(=O)=O)CC3)nc2c(N2CC3(CNCC3C(F)F)C2)n1 (stereo not given)
## Result < 200 nM

* * *

Reported IC50 by item:
System Under Test: Cyclin-dependent kinase 6/G1/S-specific cyclin-D3 (Homo sapiens, UniProt Q00534)
Test Protocol: CDK6/Cyclin D3 ADP-Glo Kinase Assay

Previously resolved entries follow.
>>> experimental_value("Cc1cc2cnc(NC3CC4CC3CN4C)nc2c(N2CCC3(C2)CC3(F)F)n1 (centres undefined)")
"200 to 500 nM"
>>> experimental_value("Cc1cc2cnc(N[C@@H]3CCOC[C@H]3O)nc2c(N2CC(O)(C3CC3)C2)n1")
"200 to 500 nM"
>>> experimental_value("Cc1cc2cnc(NC3CCN(S(=O)(=O)CCC4(C)CC4)CC3)nc2c(N2CC(F)(F)C3(CNC3)C2)n1")
"200 to 500 nM"

Pending compound:
## Task Give the value of IC50 reported for the following: Cc1cc2cnc(NC3CCN(S(C)(=O)=O)CC3)nc2c(N2CC3(CNCC3C(F)F)C2)n1 (centres undefined)
## Result < 200 nM

* * *

Reported IC50 by item:
System Under Test: Cyclin-dependent kinase 1 (Homo sapiens, UniProt P06493)
Sequence (P06493 whole entry): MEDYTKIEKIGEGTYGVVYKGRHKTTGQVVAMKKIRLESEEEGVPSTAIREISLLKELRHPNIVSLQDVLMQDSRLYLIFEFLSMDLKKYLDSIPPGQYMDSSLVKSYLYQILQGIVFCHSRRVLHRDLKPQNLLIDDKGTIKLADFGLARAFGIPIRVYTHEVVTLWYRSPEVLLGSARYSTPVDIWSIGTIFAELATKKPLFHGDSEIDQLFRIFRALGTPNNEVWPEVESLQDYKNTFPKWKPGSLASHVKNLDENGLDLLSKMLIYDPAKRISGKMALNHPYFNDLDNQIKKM
Test Protocol: CDK1/Cyclin B1 ADP-Glo Kinase Assay

>>> experimental_value("CN1Cc2ccc(Nc3ncc4ccnc(N5CCC6(C5)CC6(F)F)c4n3)cc2C1 (centres undefined) [US20250235456, Compound 22]")
"< 200 nM"
>>> experimental_value("Cc1cc2cnc(NC3CC4CC3CN4C)nc2c(N2CCC3(C2)CC3(F)F)n1 (centres undefined) [US20250235456, Compound 43]")
"> 2000 nM"
>>> experimental_value("Cc1cc2cnc(NC3CCN(S(C)(=O)=O)CC3)nc2c(N2CC3(CN(C)CC3(F)F)C2)n1 [US20250235456, Compound 101]")
"200 to 500 nM"

Pending molecule:
## Task Give the value of IC50 reported for the following: Cc1cc2cnc(NC3CCN(S(C)(=O)=O)CC3)nc2c(N2CC3(CNCC3(F)F)C2)n1 [US20250235456, Compound 85]
## Result < 200 nM
